Documented self-cleavage across a set of variants
B1: LINE1-mini (parent)
chain: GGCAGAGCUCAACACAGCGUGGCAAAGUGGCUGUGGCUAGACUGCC

Variants of: B1
Assay: self-cleavage, relative activity (ratio to wild type); higher = more cleavage; in vitro, sequencing; the parent is a self-cleaving ribozyme
parameter.measured: self-cleavage

mutation_list="G17U U38G" parameter_measured=self-cleavage val=0.08
mutation_list="A4U A26U" parameter_measured=self-cleavage val=0.2
mutation_list="A4G G36U" parameter_measured=self-cleavage val=0.09
mutation_list="G1C C13A" parameter_measured=self-cleavage val=0.05
mutation_list="A24G A39U" parameter_measured=self-cleavage val=1.31
mutation_list=A6C parameter_measured=self-cleavage val=0.71
mutation_list="C15A G29C" parameter_measured=self-cleavage val=0.18
mutation_list="A11C U34A" parameter_measured=self-cleavage val=0.02
mutation_list="G1A A6C" parameter_measured=self-cleavage val=0.81
mutation_list="G30C A39U" parameter_measured=self-cleavage val=2.23
mutation_list="G21U U32A" parameter_measured=self-cleavage val=0.12
mutation_list="G2A C8U" parameter_measured=self-cleavage val=0.43
mutation_list="A4C A11G" parameter_measured=self-cleavage val=0.04
mutation_list="G30U G33C" parameter_measured=self-cleavage val=0.11
mutation_list="G2U G30A" parameter_measured=self-cleavage val=0.09
mutation_list="C15A C23G" parameter_measured=self-cleavage val=0.05
mutation_list="A25U U43A" parameter_measured=self-cleavage val=0.21
mutation_list="C3A G35U" parameter_measured=self-cleavage val=0.59
mutation_list="G7U G22C" parameter_measured=self-cleavage val=0.04
mutation_list="A6G A24U" parameter_measured=self-cleavage val=0.19
mutation_list="C15A A16G" parameter_measured=self-cleavage val=0.07
mutation_list="C37A U43G" parameter_measured=self-cleavage val=0.08
